# Target Or System: T1, Recombinant Human DLL4 (delta-like protein 4) (human, UniProt Q9NR61 27-524)
# T1 construct: Bought recombinant human DLL4 (R&D Systems Cat#1506-D4/CF) coated on the ELISA plate; also called rHuman DLL4; Delta-like ligand 4
# Assay Notes: ELISA, DLL4 coated on plate, 100 nM Fab
Readout Type: ELISA Signal-blank (100 nM Fab)
Form: value (number only, do not type unit).

Data request: Query (binder): Fab VH5-51_IGHD5-18*01>3_IGHJ4*01 G100K/G104T G24T/S28R/G35V (H:KT TRV) & V3-4_IGLJ1*01 V91L/S96P S57P (Fab, V domains shown, Fab made in E. coli: VH in plasmid A (CH1, His6 and Flag tags), VL in plasmid E (lambda CL); also called H:KT TRV & L:LP S57P) VH: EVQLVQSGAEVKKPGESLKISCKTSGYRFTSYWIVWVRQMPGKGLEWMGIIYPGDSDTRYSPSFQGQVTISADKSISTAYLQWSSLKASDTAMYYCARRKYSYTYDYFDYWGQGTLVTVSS VL: QTVVTQEPSFSVSPGGTVTLTCGLSSGSVSTSYYPSWYQQTPGQAPRTLIYSTNTRPSGVPDRFSGSILGNKAALTITGAQADDESDYYCLLYMGPGISYVFGTGTKVTVL ; field requested: ELISA Signal-blank (100 nM Fab)
Data returned: 0.36

Data request: Query (binder): Fab VH5-51_IGHD5-18*01>3_IGHJ4*01 G100K/G104T G24T/S28R/G35V (H:KT TRV) & V3-4_IGLJ1*01 V91L/S96P S57G (Fab, V domains shown, Fab made in E. coli: VH in plasmid A (CH1, His6 and Flag tags), VL in plasmid E (lambda CL); also called H:KT TRV & L:LP S57G) VH: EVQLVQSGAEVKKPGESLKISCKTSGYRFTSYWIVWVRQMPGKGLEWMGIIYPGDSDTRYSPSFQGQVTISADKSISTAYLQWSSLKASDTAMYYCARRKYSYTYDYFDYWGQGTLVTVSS VL: QTVVTQEPSFSVSPGGTVTLTCGLSSGSVSTSYYPSWYQQTPGQAPRTLIYSTNTRGSGVPDRFSGSILGNKAALTITGAQADDESDYYCLLYMGPGISYVFGTGTKVTVL ; field requested: ELISA Signal-blank (100 nM Fab)
Data returned: 0.23
